tested on: rodent lifetime carcinogenesis bioassay, tumor incidence TD50; test: carcinogenic potency in animals, long-term in vivo studies, CPDB compilation (AID 1745844); conditions: rat; strain Fischer 344; females; in feed; site: colon; lesion: adenocarcinoma, NOS; dosed 78 weeks; study length 105 weeks
endpoint label: TD50

{"chemical smiles": "Nc1ccc(N=Nc2ccccc2)c(N)n1", "result": "687 mg/kg/day"}

---

tested on: rodent lifetime carcinogenesis bioassay, tumor incidence TD50; assay: carcinogenic potency in animals, long-term in vivo studies, CPDB compilation (AID 1745844); conditions: mouse; strain Swiss albino; males; in drinking water; site: blood vessels; lesion: angiosarcoma; dosed 72 weeks; study length 72 weeks

{"chemical smiles": "CCNN", "TD50 / mg/kg/day": 46.9}

---

tested on: rodent lifetime carcinogenesis bioassay, tumor incidence TD50; assay: carcinogenic potency in animals, long-term in vivo studies, CPDB compilation (AID 1745844); details: mouse; strain BALB/cStCrlfC3Hf/Nctr; females; in drinking water; site: lung; lesion: adenocarcinoma; dosed 78 weeks; study length 78 weeks
endpoint label: TD50 (mg/kg/day)

{"chemical smiles": "Cc1cc(-c2ccc(N)c(C)c2)ccc1N", "tested target": "rodent lifetime carcinogenesis bioassay, tumor incidence TD50", "unit name": "mg/kg/day", "number": 168}

---

tested on: rodent lifetime carcinogenesis bioassay, tumor incidence TD50; experiment: carcinogenic potency in animals, long-term in vivo studies, CPDB compilation (AID 1745844); settings: mouse; strain Swiss albino; males; in drinking water; site: blood vessels; lesion: angiosarcoma; dosed 52 weeks; study length 52 weeks
endpoint label: TD50

{"chemical smiles": "CNNC", "result": "0.102 mg/kg/day"}

---

test system: rodent lifetime carcinogenesis bioassay, tumor incidence TD50; experiment: carcinogenic potency in animals, long-term in vivo studies, CPDB compilation (AID 1745844); details: mouse; strain B6C3F1; males; inhaled; site: subcutaneous tissue; lesion: hemangiosarcoma; dosed 104 weeks; study length 104 weeks
endpoint label: TD50 (mg/kg/day)

{"chemical smiles": "C=CC(=C)Cl", "endpoint label": "TD50", "number": 177}

---

tested on: rodent lifetime carcinogenesis bioassay, tumor incidence TD50; test: carcinogenic potency in animals, long-term in vivo studies, CPDB compilation (AID 1745844); settings: mouse; strain ICRC x C3H (Jax); males; by gavage; site: lung; lesion: adenocarcinoma; dosed 73 weeks; study length 73 weeks
endpoint label: TD50

{"chemical smiles": "O=S(=O)(O)O", "result": "79.5 mg/kg/day"}

---

tested on: rodent lifetime carcinogenesis bioassay, tumor incidence TD50; assay: carcinogenic potency in animals, long-term in vivo studies, CPDB compilation (AID 1745844); details: hamster; strain Syrian Golden; females; by gavage; site: forestomach; lesion: several types; types named in the paper; dosed 35 weeks; study length 55 weeks
endpoint label: TD50

{"molecule": "CC(=O)CNCC(O)C(O)N=O (stereo unspecified)", "tested target": "rodent lifetime carcinogenesis bioassay, tumor incidence TD50", "endpoint label": "TD50", "result": "0.754 mg/kg/day"}

---

system: rodent lifetime carcinogenesis bioassay, tumor incidence TD50; assay: carcinogenic potency in animals, long-term in vivo studies, CPDB compilation (AID 1745844); settings: mouse; strain B6C3F1; males; in feed; site: any site (literature study); lesion: several types; types named in the paper; dosed 99 weeks; study length 99 weeks

{"chemical smiles": "Cc1cc(Cl)ccc1N", "TD50, mg/kg/day": 537}

---

tested on: rodent lifetime carcinogenesis bioassay, tumor incidence TD50; assay: carcinogenic potency in animals, long-term in vivo studies, CPDB compilation (AID 1745844); details: mouse; strain CDF1; males; in feed; site: lung; lesion: adenocarcinoma; dosed 76 weeks; study length 85 weeks
Calls of active or inactive are those of the source. How the calls were made is not given here.
endpoint label: TD50

{"chemical smiles": "CCn1cc(C(=O)O)c(=O)c2ccc(C)nc21", "result": "3980 mg/kg/day (inactive)"}

---

test system: rodent lifetime carcinogenesis bioassay, tumor incidence TD50; assay: carcinogenic potency in animals, long-term in vivo studies, CPDB compilation (AID 1745844); settings: rat; strain Fischer 344; females; in feed; site: liver; lesion: hepatocellular carcinoma; dosed 101 weeks; study length 101 weeks

{"chemical smiles": "Cc1cc(C)c(N)cc1C", "TD50": "142 mg/kg/day"}

---

tested on: rodent lifetime carcinogenesis bioassay, tumor incidence TD50; assay: carcinogenic potency in animals, long-term in vivo studies, CPDB compilation (AID 1745844); conditions: mouse; strain B6C3F1; males; in feed; site: liver; lesion: hemangioma; dosed 70 weeks; study length 84 weeks
endpoint label: TD50 (mg/kg/day)

{"compound": "CCOc1ccc(NC(=O)CC(C)O)cc1 (stereo unspecified)", "endpoint label": "TD50", "unit name": "mg/kg/day", "number": 406000}

---

test system: rodent lifetime carcinogenesis bioassay, tumor incidence TD50; assay: carcinogenic potency in animals, long-term in vivo studies, CPDB compilation (AID 1745844); details: mouse; strain B6C3F1; females; by gavage; site: liver; lesion: hepatocellular adenoma + hepatocellular carcinoma + neoplastic nodule; dosed 78 weeks; study length 91 weeks
endpoint label: TD50 (mg/kg/day)

{"chemical smiles": "C=Cc1ccccc1", "number": 905}
{"chemical smiles": "C=CCCl", "number": 2180}

---

tested on: rodent lifetime carcinogenesis bioassay, tumor incidence TD50; assay: carcinogenic potency in animals, long-term in vivo studies, CPDB compilation (AID 1745844); settings: rat; strain Wistar; females; in drinking water; site: thyroid gland; lesion: several types; types named in the paper; dosed 104 weeks; study length 104 weeks
endpoint label: TD50

{"molecule": "O=C1OC(O)C(C(Cl)Cl)=C1Cl (stereo unspecified)", "result": "0.741 mg/kg/day"}

---

system: rodent lifetime carcinogenesis bioassay, tumor incidence TD50; assay: carcinogenic potency in animals, long-term in vivo studies, CPDB compilation (AID 1745844); settings: mouse; strain B6C3F1; females; inhaled; site: lung; lesion: alveolar/bronchiolar adenoma + alveolar/bronchiolar carcinoma; dosed 95 weeks; study length 95 weeks

{"chemical smiles": "FC(F)=C(F)F", "unit name": "mg/kg/day", "TD50": 1010}

---

tested on: rodent lifetime carcinogenesis bioassay, tumor incidence TD50; assay: carcinogenic potency in animals, long-term in vivo studies, CPDB compilation (AID 1745844); details: mouse; strain B6C3F1; males; in drinking water; site: liver; lesion: hepatoblastoma + hepatocellular carcinoma; dosed 103 weeks; study length 103 weeks
endpoint label: TD50

{"chemical smiles": "c1ccncc1", "tested target": "rodent lifetime carcinogenesis bioassay, tumor incidence TD50", "endpoint label": "TD50", "result": "22.1 mg/kg/day"}

---

test system: rodent lifetime carcinogenesis bioassay, tumor incidence TD50; experiment: carcinogenic potency in animals, long-term in vivo studies, CPDB compilation (AID 1745844); conditions: rat; strain Donryu; males; in feed; site: liver; lesion: papillary adenocarcinoma; dosed 40 weeks; study length 80 weeks
endpoint label: TD50

{"chemical smiles": "CC(N)=S", "result": "27.6 mg/kg/day"}

---

tested on: rodent lifetime carcinogenesis bioassay, tumor incidence TD50; experiment: carcinogenic potency in animals, long-term in vivo studies, CPDB compilation (AID 1745844); details: rat; strain Sprague-Dawley; females; inhaled; site: extrahepatic tissue; lesion: angiosarcoma; dosed 25 weeks; study length 135 weeks

{"chemical smiles": "C=CCl", "tested target": "rodent lifetime carcinogenesis bioassay, tumor incidence TD50", "TD50": "2420 mg/kg/day"}

---

test system: rodent lifetime carcinogenesis bioassay, tumor incidence TD50; assay: carcinogenic potency in animals, long-term in vivo studies, CPDB compilation (AID 1745844); conditions: rat; strain Fischer 344; males; by gavage; site: liver; lesion: hepatocellular adenoma + hepatoblastoma + hepatocellular carcinoma; dosed 104 weeks; study length 104 weeks
endpoint label: TD50 (mg/kg/day)

{"chemical smiles": "CCCCCCCC(=O)OCC(COC(=O)CCCCCCC)OC(=O)CCCCCCC", "endpoint label": "TD50", "unit name": "mg/kg/day", "number": 37100}

---

test system: rodent lifetime carcinogenesis bioassay, tumor incidence TD50; experiment: carcinogenic potency in animals, long-term in vivo studies, CPDB compilation (AID 1745844); settings: mouse; strain B6C3F1; females; by gavage; site: ovary; lesion: granulosa-cell tumor, benign; dosed 103 weeks; study length 105 weeks

{"chemical smiles": "C=CC(=O)NCO", "tested target": "rodent lifetime carcinogenesis bioassay, tumor incidence TD50", "TD50": "119 mg/kg/day"}

---

tested on: rodent lifetime carcinogenesis bioassay, tumor incidence TD50; experiment: carcinogenic potency in animals, long-term in vivo studies, CPDB compilation (AID 1745844); details: rat; strain F344/DuCrj; females; inhaled; site: liver; lesion: hepatocellular adenoma; dosed 104 weeks; study length 104 weeks
Calls of active or inactive are those of the source. How the calls were made is not given here.

{"chemical smiles": "ClC(Cl)Cl", "TD50": "2180 mg/kg/day (inactive)"}

---

system: rodent lifetime carcinogenesis bioassay, tumor incidence TD50; test: carcinogenic potency in animals, long-term in vivo studies, CPDB compilation (AID 1745844); details: rat; strain Osborne-Mendel; females; by gavage; site: liver; lesion: hepatocellular adenoma + hepatocellular carcinoma + neoplastic nodule; dosed 104 weeks; study length 105 weeks

{"chemical smiles": "Clc1cc2c(cc1Cl)Oc1cc(Cl)c(Cl)cc1O2", "TD50, mg/kg/day": 0.000127}
